Listed here: items and their measured IC50.
system: HEK293 (human embryonic kidney); experiment: CCK-8 cytotoxicity assay, HEK293; format: cell-based; conditions: HEK293, 48 h, CCK-8, 50% growth inhibition
TEST READOUT: IC50

In [3]: df
Out[3]:
                              smiles_string                              tgt  test_readout  experimental_value
0  CCOP(=O)(OCC)c1cccc2c(-c3ccc(C)cc3)cc(-c3ccc(F)cc3)nc12  HEK293 (human embryonic kidney)          IC50             > 50 µM
1  CC(C)OP(=O)(OC(C)C)c1cccc2c(-c3ccccc3)cc(-c3ccc(F)c(F)c3)nc12  HEK293 (human embryonic kidney)          IC50             > 50 µM
2  CCOP(=O)(OCC)c1ccc2nc(-c3ccc(F)cc3)cc(-c3ccc(F)cc3)c2c1  HEK293 (human embryonic kidney)          IC50             > 50 µM
